Recorded values, source patent US20060128724A1.

- TARGET_OR_SYSTEM: c-MET (HGFR) (Homo sapiens)
- Construct: purchased Upstate 14-526
- Sequence (P08581 974-1390 limits assumed): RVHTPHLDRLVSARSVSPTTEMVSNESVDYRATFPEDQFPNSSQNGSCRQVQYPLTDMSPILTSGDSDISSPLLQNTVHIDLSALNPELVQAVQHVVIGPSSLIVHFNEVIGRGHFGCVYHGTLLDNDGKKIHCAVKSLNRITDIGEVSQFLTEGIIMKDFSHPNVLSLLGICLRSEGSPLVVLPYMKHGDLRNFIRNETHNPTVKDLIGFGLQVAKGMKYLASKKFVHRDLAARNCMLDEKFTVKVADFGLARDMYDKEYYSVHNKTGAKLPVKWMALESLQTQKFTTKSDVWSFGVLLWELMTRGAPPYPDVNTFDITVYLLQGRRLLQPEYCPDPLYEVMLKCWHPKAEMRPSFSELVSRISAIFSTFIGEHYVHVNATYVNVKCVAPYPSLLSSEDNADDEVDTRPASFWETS
- PROTOCOL_NOTES: HGFR Continuous-Coupled Spectrophotometric Assay
- Type: biochemical
- COND: Met-2 substrate peptide, 50 nM HGFR, 37° C.; read-out: c-Met Ki
MEASURED_ATTRIBUTE: Ki (nM)

Solved cases (2 shown):
{"COMPOUND": "CC(Oc1cc(-c2cnn(C[C@H]3C[C@@H]3C(=O)N(C)C)c2)cnc1N)c1c(Cl)ccc(F)c1Cl (stereo in doubt)", "Ki [nM]": 144}
{"COMPOUND": "CC(Oc1cc(-c2cnn(C[C@H]3COC(C)(C)O3)c2)cnc1N)c1c(Cl)ccc(F)c1Cl (stereo in doubt)", "Ki [nM]": 62}

P. Cc1nn(C(C)(C)C(=O)NCCN2CCCC2)cc1-c1cnc(N)c(OC(C)c2c(Cl)ccc(F)c2Cl)c1 (stereo not shown)
Q. CC(Oc1cc(-c2cnn(C(C)(C)C(=O)NCCN3CCOCC3)c2)cnc1N)c1c(Cl)ccc(F)c1Cl (stereo not shown)
Exercise: Between the entries labeled P and Q , whose measured Ki is lower? API: response body contains the label of the selected item.
Solution: P
(P: 70 nM, Q: 140 nM)

----------
- TARGET_OR_SYSTEM: c-MET (HGFR) (Homo sapiens)
- Construct: purchased Upstate 14-526
- PROTOCOL_NOTES: HGFR Continuous-Coupled Spectrophotometric Assay
- Type: biochemical
- COND: Met-2 substrate peptide, 50 nM HGFR, 37° C.; read-out: c-Met Ki
- Text: The following in vitro assay may be used to determine the level of activity and effect of the different compounds of the present invention on one or more of the PKs. Similar assays can be designed along the same lines for any PK using techniques well known in the art. The general procedure is as follows: compounds and kinase assay reagents are introduced into test wells. The assay is initiated by addition of the kinase enzyme. Enzyme inhibitors reduce the measured activity of the enzyme. […]
MEASURED_ATTRIBUTE: Ki (nM)

{"MOLECULE": "C[C@@H](Oc1cc(-c2cnn(C3CCNCC3)c2)cnc1N)c1c(F)ccc(F)c1Cl", "TARGET_OR_SYSTEM": "c-MET (HGFR) (Homo sapiens)", "Ki, nM": 90}

A. CC(C)Cn1cc(-c2cnc(N)c(OC(C)c3c(Cl)ccc(F)c3Cl)c2)cn1 (stereo not drawn)
B. CC(Oc1cc(-c2cnn(CC3CN(C(=O)OC(C)(C)C)C3)c2)cnc1N)c1c(Cl)ccc(F)c1Cl (stereo not drawn)
Exercise: Between the entries labeled A and B , whose measured Ki is lower? API: response body contains the label of the selected item.
Solution: B
